For each record, write down the corresponding GI50.
tested on: HCT-116; assay: NCI tumour cell line growth inhibition, 48 h
Active and inactive are the calls of the source. Rule as the data show it: active = GI50 up to about 1.1 µM and inactive = higher.

// below: answered molecules
molecule	GI50
Cc1ccc(C2=Nn3c(nc4sc5c(c4c3=O)CCCC5)SC2)cc1	> 100 µM (inactive)
CC(C)(C)c1cc(C#N)c2c(c1)C(=O)OC2(c1ccccc1)c1ccccc1C#N (centres undefined)	> 100 µM (inactive)
CCOC(=O)C(NC(=O)CC)(Nc1ccc(S(=O)(=O)Nc2ncccn2)cc1)C(F)(F)F (centres undefined)	> 100 µM (inactive)
N#Cc1c(-c2ccccc2)c(/C=N/c2cccc(C(F)(F)F)c2)c(=O)n2c1[nH]c1ccccc12	29.6 µM (inactive)
CCOC(=O)C(C(=O)OCC)C(NC(=O)Nc1cc(C(F)(F)F)ccc1OC)(C(F)(F)F)C(F)(F)F	36.2 µM (inactive)

Batch request: GI50 for each of the following molecules.
1. CCCCC(=O)OC[n+]1ccc(-c2c(COC(=O)NC(C)C)c(COC(=O)NC(C)C)c3n2CCC3)cc1
2. CCOC(=O)C1=C(C)N(Cc2ccccc2)C2(O)C=CC(=O)C3C(=O)N(c4ccccc4)C(=O)C132 (centres undefined)
3. c1ccc(C2SCc3nc4ccccc4n32)cc1 (centres undefined)
4. COc1ccc(N2C(=O)c3cccnc3S2(=O)=O)cc1

Result:
> 94.8 µM (inactive)
1.15 µM (inactive)
19.7 µM (inactive)
> 100 µM (inactive)

====

test system: SK-OV-3; test: NCI tumour cell line growth inhibition, 48 h
Active and inactive are the calls of the source. Rule as the data show it: active = GI50 up to about 1.1 µM and inactive = higher.
The reply should be one of these categories: YES = active, NO = inactive

molecule	assignedLabel
CC(=O)Oc1c(-c2ccccc2)[nH]c2cc([N+](=O)[O-])c(/C(Cl)=C/c3ccccc3)cc12	NO
O=C(Nc1cccc2ccccc12)Oc1ccccc1C1CCCCC1	NO
CN(CCCNC(=O)c1cc(-c2ccccc2)nc2ccccc12)CCCNC(=O)c1cc(-c2ccccc2)nc2ccccc12	NO
O=C1COc2cc(NC(=S)Nc3ccccc3)ccc2N1	NO
CC1=NN(C(=O)CSc2nnc(SCC(=O)N3N=C(C)CC3(O)c3ccccc3)s2)C(O)(c2ccccc2)C1 (centres undefined)	NO
N=C(N)N/N=C/c1oc(-c2ccc(S(=O)(=O)O)o2)c(-c2ccc(S(=O)(=O)O)o2)c1[N+](=O)[O-]	NO
O=c1[nH]c(=O)n([C@@H]2O[C@H](CO)[C@@H](O)[C@@H]2F)cc1I	NO
O=C(N/N=C/c1cc(Cl)cc(Cl)c1O)c1ccccc1O	YES

Query: Assay outcome for "CC(=O)C(=[N+]=[N-])C(=O)OC(C)(C)C#N" : what was it?
Result: NO

Query: Assay outcome for "Cn1c(-c2c(C3=CC(=O)N(c4ccccc4)C3=O)c3ccccc3n2C)cc2ccccc21" : what was it?
Result: NO

Query: Assay outcome for "CC(=O)O[C@@H]1C[C@]2(C(=O)c3ccccc3)C(=O)C(=O)S[C@]12c1ccccc1" : what was it?
Result: NO

Query: Assay outcome for "O=C1Oc2ccccc2C(=O)/C1=C/N1C(=O)N/C(=C\c2ccccc2O)C1=O" : what was it?
Result: NO

Query: Assay outcome for [O-][S+]1[C@H](c2ccccc2)c2c(-c3ccccc3)sc(-c3ccccc3)c2[C@@H]1c1ccccc1 (some centres undefined) : what was it?
Result: NO

Query: Assay outcome for "N/C(=N\O)N/N=C/c1ccc(C(F)(F)F)cc1" : what was it?
Result: NO

Query: Assay outcome for "O=C(CC/C(CC(=O)c1ccc(Cl)cc1)=N/O)Nc1ccc(Cl)c(Cl)c1" : what was it?
Result: NO

Query: Assay outcome for "CN(C)c1n/c(=N/Cc2ccncc2)ss1" : what was it?
Result: NO

Query: Assay outcome for "O=C(Cn1c(=O)oc2ccccc21)N(c1ccccc1)c1ccccc1" : what was it?
Result: NO

Query: Assay outcome for "COC(=O)CC(=O)Nc1sccc1S(=O)(=O)c1ccccc1" : what was it?
Result: NO

Query: Assay outcome for CC(=O)OC1C(O)C(C)OC(OC(=O)C2CCC3C(C2)OC2(CC(OC(=O)/C=C/c4ccccc4)C(C)CO2)C32CO2)C1OC1OC(C)C(O)C(O)C1O (centres undefined) : what was it?
Result: YES

====

tested on: SK-OV-3; assay: NCI tumour cell line growth inhibition, 48 h
Calls of active or inactive are those of the source. Cut-off read from the data, not from the text of the source: active = GI50 up to about 1.1 µM and inactive = higher.
The reply should be one of these categories: Y (active), N (inactive)

Recorded results for 8 compounds are shown here.
compound	assignedLabel
O=C(NC1CCCCC1)c1c(O)[nH]c(=S)[nH]c1=O	N
COc1cc(-c2[o+]c3cc(O)cc(O)c3cc2O)cc(O)c1O	N
COC(OC)(c1ccccc1)C(I)I	N
CNC(=O)N(C)COC	N
Cc1cc2nn(C3CCCO3)nc2cc1C (centres undefined)	N
COC(=O)[C@H](Cc1ccccc1)NC(=O)c1ccc(CNC(=O)/C=C/c2ccc(-c3ccccc3)cc2)cc1	N
O=C(CSC(=S)N1CCCCC1)Nc1nc2c(s1)CCCC2	N
COc1cc(C(=O)C/C(CCCC(=O)Nc2ccccc2[N+](=O)[O-])=N/NC(=O)c2cc3ccccc3cc2O)ccc1O	N

Query: Assay outcome for "N#CC(C#N)[C@@H]1CCC=C(Sc2ccccc2)[C@H]1Sc1ccccc1" : what was it?
Result: N

Query: Assay outcome for "Cc1ccc(NC(=O)c2cccc(OP(=O)(Nc3ccc(C)cc3)Nc3ccc(C)cc3)c2)cc1" : what was it?
Result: N

Query: Assay outcome for "CN(Cc1cnc2nc(N)nc(N)c2n1)c1ccc(C(=O)NC23CC4CC(CC(C4)C2)C3)cc1" : what was it?
Result: N

Query: Assay outcome for "O=C(OCC(Cl)(Cl)Cl)N1CC[C@@H](C2CCCCC2)C1" : what was it?
Result: N

====

For each record, write down the corresponding GI50.
system: SW-620; assay: NCI tumour cell line growth inhibition, 48 h
Active and inactive are the calls of the source. Cut-off read from the data, not from the text of the source: active = GI50 up to about 1.1 µM and inactive = higher.

// below: answered compounds
compound	studyTarget	endpointResult
Cc1cn(Cc2cn(CC3OC(n4cc(C)c(=O)[nH]c4=O)CC3O)nn2)c(=O)[nH]c1=O (stereo not drawn)	SW-620	> 100 µM (inactive)
COc1ccc(-c2oc(/C=N/NC(N)=S)c([N+](=O)[O-])c2-c2ccc(OC)c(OC)c2)cc1OC	SW-620	33.1 µM (inactive)

Batch request: GI50 for each of the following compounds.
1. OCC(O)C(O)C(O)C(/C=N\Nc1ncnc2c(Br)cc(Br)cc12)=N/Nc1ncnc2c(Br)cc(Br)cc12 (stereo not drawn)
2. O=c1[nH]c(=O)n([C@@H]2O[C@H](CO)[C@@H](O)[C@@H]2F)cc1I
3. O=C1c2ccccc2C(C2c3ccccc3C(=O)c3cc(Br)ccc32)c2ccc(Br)cc21 (stereo not drawn)
4. N/C(=N\O)N/N=C/c1ccc(C(F)(F)F)cc1
5. CC(=O)O[C@H]1CC2C(C3CCC(C(C)CCC(=O)O)[C@]31C)[C@H](OC(C)=O)C[C@@H]1CC3(CC[C@]21C)OOC1(CC[C@]2(C)C4C[C@H](OC(C)=O)[C@]5(C)C(C(C)CCC(=O)O)CCC5C4[C@H](OC(C)=O)C[C@@H]2C1)OO3 (stereo partly drawn)

Result:
5.46 µM (inactive)
> 100 µM (inactive)
> 100 µM (inactive)
31 µM (inactive)
3.46 µM (inactive)

// field: GI50; key: "Cc1nc2ccccc2c(=O)n1NC(=O)c1ccc(N)cc1" ; value = > 100 µM (inactive)

====

tested on: T47D; assay: NCI tumour cell line growth inhibition, 48 h
Activity calls are given as the source filed them. Rule as the data show it: active = GI50 up to about 1.1 µM and inactive = higher.
The reply should be one of these categories: 1 = active, 0 = inactive

Recorded results for 3 compounds are shown here.
compound	assignedLabel
NC(CSC1(c2ccc(Cl)cc2)c2ccccc2-c2ccccc21)C(=O)O (stereo not given)	0
Cc1cn(Cc2cn(CC3OC(n4cc(C)c(=O)[nH]c4=O)CC3O)nn2)c(=O)[nH]c1=O (stereo not given)	0
C[C@@]1(O)C2CC3CC1(c1ccccc1)CC(/C3=N/O)/C2=N\O (stereo not given in full)	0

Query: Assay outcome for "O=c1cc(NNc2ccccc2F)[nH]c(=O)[nH]1" : what was it?
Result: 1

Query: Assay outcome for "O=C(O)c1ccc(Nc2nc3ccc(C(F)(F)F)cc3nc2C(=O)O)cc1" : what was it?
Result: 0

Query: Assay outcome for "Cc1ccc(SC2=C(N(C)C)C(=O)c3ccccc3C2=O)cc1" : what was it?
Result: 0

Query: Assay outcome for "COc1ccc2cc(NC(=O)Nn3cnnc3)ccc2c1" : what was it?
Result: 0

Query: Assay outcome for "CN(C)/N=C1/CCC(C(F)(F)F)(C(F)(F)F)O1" : what was it?
Result: 0

Query: Assay outcome for "CC(=O)C(=[N+]=[N-])C(=O)OC(C)(C)C#N" : what was it?
Result: 0

Query: Assay outcome for "Nc1nc(S)c2c(N)n[nH]c2c1C(=O)Nc1ccc(Cl)cc1" : what was it?
Result: 0

Query: Assay outcome for "COC(=O)C#Cc1ccc([N+](=O)[O-])cc1" : what was it?
Result: 0

Query: Assay outcome for c1ccc(CN2CCC(CNc3ncnc4ccccc34)C2)cc1 (stereo not given) : what was it?
Result: 0

Query: Assay outcome for CCC/C=C/C=C/C(=O)OC1/C(=C/C(=O)OC)CC2CC(C(C)O)OC(=O)CC(O)CC3CC(OC(C)=O)C(C)(C)C(O)(CC4C/C(=C/C(=O)OC)CC(/C=C/C(C)(C)C1(O)O2)O4)O3 (stereo not given) : what was it?
Result: 0

Query: Assay outcome for "COc1ccc2c(c1)c1nn(CCN3CCCCC3)c3ccc4c(=O)n(CCN(C)C)c(=O)n2c4c13" : what was it?
Result: 1

Query: Assay outcome for "COC(=O)C1=C(C)NC(C)=C(C(=O)OC)C1c1nc2sccn2c1[N+](=O)[O-]" : what was it?
Result: 0
